Reference for the values: patent US5441948A

# Test system: vasopressin-induced ST elevation
# PROCEDURE_SUMMARY: Inhibitory effect on the vasopressin-induced ST elevation in anaesthetized rats
# Assay type: in vivo, CFY male rats
# CONDITIONS: 1 mg/kg, i.v. pretreatment; vasopressin 3 IE/kg i.v.
REPORTED_ENDPOINT: Inhibition (%) of vasopressin-induced ST elevation
Respond with the bare value in %.

Answered examples (3):
| MOLECULE | ASSAY_TARGET | MEASURED_VALUE |
| --- | --- | --- |
| COc1cc(C(=O)OCCCN2C(N=C(N)N3CCCNCC3)=Nc3ccccc3C(=O)N2C)cc(OC)c1OC | vasopressin-induced ST elevation | -59 |
| CC(NC(N)=NC1=Nc2ccccc2C(=O)N(C)N1)C(C)(C)C (stereo not shown) | vasopressin-induced ST elevation | -68 |
| O=C(NCCO[N+](=O)[O-])c1cccnc1 [Nicorandil, reference compound] | vasopressin-induced ST elevation | -12 |

Could you now consider this next molecule?
Req: GET /values?readout=Inhibition (%) of vasopressin-induced ST elevation&system=vasopressin-induced ST elevation&item= CN1C(=O)c2ccccc2N=C(N=C(N)N2CCCCC2)N1Cc1ccccn1
Resp: -59
